- SYSTEM TESTED: Nuclear receptor subfamily 1 group I member 2 (Homo sapiens) (UniProt O75469)
- Sequence (O75469 whole entry, looked up): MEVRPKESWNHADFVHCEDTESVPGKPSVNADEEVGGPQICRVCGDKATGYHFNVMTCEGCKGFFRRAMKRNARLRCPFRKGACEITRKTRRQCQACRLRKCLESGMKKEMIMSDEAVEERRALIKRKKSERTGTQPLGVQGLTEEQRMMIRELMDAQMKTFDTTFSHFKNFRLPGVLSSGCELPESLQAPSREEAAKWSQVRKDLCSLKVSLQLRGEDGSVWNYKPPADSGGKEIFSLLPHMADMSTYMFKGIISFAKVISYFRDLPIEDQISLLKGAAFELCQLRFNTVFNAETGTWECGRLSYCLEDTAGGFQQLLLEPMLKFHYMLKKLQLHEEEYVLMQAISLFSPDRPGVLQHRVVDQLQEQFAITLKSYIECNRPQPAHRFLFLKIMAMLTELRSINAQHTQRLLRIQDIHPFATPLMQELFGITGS
- MEASUREMENT PROTOCOL: Human pregnane X receptor (PXR) small molecule agonists, qHTS assay (AID 1346982); also: nearly all actives have a fitted effect of over 35% in size; as to activation: % is scaled to controls: 0 for no effect and ±100 for the full control effect
- CONDITION PARAMETERS: PXR-Luc HepG2, CYP3A4 luciferase reporter, 24 h; series mostly up to 92.4 µM
Inconclusive results are not listed. Calls of active or inactive are those of the source. Calls follow the shape of the dose curve; as a rule, active = well fitted activation curve with a large enough effect in the repeat runs; inconclusive = weak or mixed curves; inactive = no such curve, though single readings can be large or run the other way.
Just give me one of these, please: active, inactive

> print(dat)
           compound  assigned.label
1  CCCCOc1ccc(N)cc1          active

Qu. Kindly provide the recorded test outcome for the following compound: CCCOC(C)=O
Ans. inactive

Qu. Assay outcome for O=C(O)c1ccccc1[N+](=O)[O-] : what was it?
Ans. inactive

Qu. Dear all, I need the recorded test outcome for CC(=O)Nc1ccn(C2COC(COC(=O)c3ccccc3)O2)c(=O)n1 (stereo not drawn) , thank you.
Ans. inactive

Qu. For this compound, state the assay outcome: CCCCOC(=O)CC#N
Ans. inactive

Qu. Dear all, I need the recorded test outcome for O=C(O)c1ccccc1-n1cc(C(=O)O)c(=O)c2cc(Nc3c(F)cc(F)cc3Cl)c(Cl)cc21 , thank you.
Ans. inactive

Qu. Test call for this compound, please: NC(=O)c1ccccc1C(N)=O
Ans. inactive

Qu. Field: outcome | Entry: C=CC(=O)OCCCCCCCCCC
Ans. inactive

Qu. Returns: the outcome recorded for NC(=O)c1ccccc1 in this assay.
Ans. inactive

Qu. State the result this test recorded for CC(=O)Oc1cccc2c1C(=O)c1c(OC(C)=O)cc(C(=O)O)cc1C2=O .
Ans. inactive

Qu. Can you look up the reported call for COc1ccc(/C=C/c2cc(OC)cc(=O)o2)cc1 for me?
Ans. active

Qu. So what was the verdict on CCCCCCCCNC in this test?
Ans. inactive

Qu. Assay result, entry CC/C=C/CCO — outcome?
Ans. inactive

Qu. Outcome? CCCC1CCCC(=O)O1 (stereo not drawn)
Ans. inactive

Qu. Please share the test call associated with O=c1c2ccccc2oc2ccccc12 .
Ans. inactive

Qu. // outcome(item) with item = CC(COc1ccccc1)NC(C)C(O)c1ccc(O)cc1 (stereo not drawn)
Ans. active

Qu. For CC(C)NC(=O)c1ccccc1N , which call appears in the assay record?
Ans. inactive

Qu. Record lookup: outcome of this test for COC(=O)Cc1cccc2ccccc12 ?
Ans. inactive

Qu. Hi, do you know how Oc1ccc(CCNCCCCCCNCCc2ccccc2)cc1O came out in this test?
Ans. inactive

---

- SYSTEM TESTED: Estrogen receptor (Homo sapiens) (UniProt P03372)
- Sequence (P03372 whole entry, looked up): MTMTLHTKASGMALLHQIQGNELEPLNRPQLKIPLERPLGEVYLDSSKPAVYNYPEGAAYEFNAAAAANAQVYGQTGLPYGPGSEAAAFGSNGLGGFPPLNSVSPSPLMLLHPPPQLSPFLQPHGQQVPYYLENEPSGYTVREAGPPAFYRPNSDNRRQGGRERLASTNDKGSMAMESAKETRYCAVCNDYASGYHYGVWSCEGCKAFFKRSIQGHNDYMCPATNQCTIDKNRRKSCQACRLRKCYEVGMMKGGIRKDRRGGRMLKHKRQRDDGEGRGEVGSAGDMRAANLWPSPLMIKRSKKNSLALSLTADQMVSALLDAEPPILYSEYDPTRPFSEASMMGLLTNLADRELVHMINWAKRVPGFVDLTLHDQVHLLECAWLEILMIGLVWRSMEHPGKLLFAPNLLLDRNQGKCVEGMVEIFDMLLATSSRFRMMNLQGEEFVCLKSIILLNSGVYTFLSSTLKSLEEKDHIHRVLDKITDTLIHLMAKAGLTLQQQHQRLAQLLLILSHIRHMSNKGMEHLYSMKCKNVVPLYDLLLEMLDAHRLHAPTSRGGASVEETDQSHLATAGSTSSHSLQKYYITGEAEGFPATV
- MEASUREMENT PROTOCOL: qHTS assay to identify small molecule antagonists of the estrogen receptor alpha (ER-alpha) signaling pathway using the BG1 cell line in the presence of 0.1 nM 17-beta-estradiol (AID 1259244); also: % is scaled to controls: 0 for no effect and ±100 for the full control effect; nearly all actives have a fitted effect of over 50% in size
- CONDITION PARAMETERS: VM7Luc4E2 (BG1) ERE-luciferase, antagonist mode, 0.1 nM E2, 22 h; series mostly up to 92.4 µM
- Excerpt: National Center for Advancing Translational Sciences [NCATS] NIH Chemical Genomics Center [NCGC] U.S. Environmental Protection Agency [EPA] National Institutes of Environmental Health Sciences [NIEHS] National Toxicology Program [NTP] U.S. Food and Drug Administration [FDA] Estrogen receptor (ER), a member of the nuclear hormone receptor plays an important role in development, metabolic homeostasis and reproduction. […]
Inconclusive results are not listed. Active and inactive are the calls of the source. Calls come from the whole dose curve; as a rule, active = well fitted inhibition curve with a large enough effect in the repeat runs; inconclusive = weak or mixed curves; inactive = no such curve, though single readings can be large or run the other way.
OBSERVED PROPERTY: activity change, negative = inhibition

> print(dat)
         compound.structure                       observed.property                   value.observed
1      CCCCCCCCCCCCCCCCCCCl  activity change, negative = inhibition  -0.369% [at 8.39 µM] (inactive)
2  CC(C)C/C=C(\C=O)c1ccccc1  activity change, negative = inhibition                         inactive
3                    C=CCCC  activity change, negative = inhibition                         inactive
4                 CCCCCCCCS  activity change, negative = inhibition                         inactive

---

- MEASUREMENT PROTOCOL: A CellTox Green Cytotoxicity Assay to monitor cytotoxicity in HepG2 cells - 24 hour (AID 1224878); also: % is scaled to controls: 0 for no effect and ±100 for the full control effect; nearly all actives have a fitted effect of over 45% in size
- CONDITION PARAMETERS: CellTox Green fluorescence; series mostly up to 76.8 µM
Results filed as inconclusive are left out. Active and inactive are the calls of the source. The call rests on the fitted dose curve; in most records, active means well fitted activation curve with a large enough effect in the repeat runs; inconclusive means weak or mixed curves; inactive means flat fitted curve, though single readings scatter.
OBSERVED PROPERTY: outcome

> print(dat)
                                   compound  value.observed
1  CO[C@@H]1COCC[C@@H]1N[C@@H]1CC[C@@](C(=O)N2CCc3ncc(C(F)(F)F)cc3C2)(C(C)C)C1        inactive
2   CCC(C)C1N=C(C)C(C)S1 (stereo not drawn)        inactive
3           COc1ccc(C(=O)c2ccc(C)cc2)c(O)c1        inactive

---

- MEASUREMENT PROTOCOL: Caspase-3/7 induction in HepG2 cells by small molecules, qHTS cell viability counter screen (AID 1346981); also: nearly all actives have a fitted effect of over 30% in size
- CONDITION PARAMETERS: CellTiter-Fluor fluorescence, 17 h; series mostly up to 92.4 µM
Records with an inconclusive call do not appear. The source made the active and inactive calls. The call rests on the fitted dose curve; in most records, active means well fitted cell-killing curve with a large enough effect in the repeat runs; inconclusive means weak or mixed curves, or effect the other way; inactive means flat fitted curve, though single readings scatter.
Respond with a class label; see true for active, false for inactive

Qu. Any idea what this test logged for CCOC(C)OCC ?
Ans. false

Qu. So what was the verdict on CC(C)CCCCCOC(=O)CS in this test?
Ans. false

Qu. Answer briefly: the call reported for CCCCCCCCCC(C)C=O (configuration not stated) in this assay.
Ans. false

Qu. Per the assay record, what outcome was assigned to CCCc1nc(C)c2c(=O)[nH]c(-c3cc(S(=O)(=O)N4CCN(CC)CC4)ccc3OCC)nn12 ?
Ans. false

Qu. Called result for Oc1ccc(Oc2ccccc2)cc1
Ans. false

Qu. What call does the record list for CCC(=O)O[C@]1(C(=O)COC)[C@@H](C)C[C@H]2[C@@H]3CCC4=CC(=O)C=C[C@]4(C)C3(F)[C@@H](O)C[C@@]21C (some centres not stated) ?
Ans. false

Qu. Tell me the recorded outcome of this test for CC(=O)Oc1cccc2c1C(=O)c1c(OC(C)=O)cc(C(=O)O)cc1C2=O .
Ans. true

Qu. Name the outcome recorded for Nc1ncnc2c1ncn2[C@@H]1O[C@H](CO)[C@@H](O)[C@H]1O in the assay.
Ans. false

Qu. State the result this test recorded for c1ccc(CN(Cc2ccccc2)Cc2ccccc2)cc1 .
Ans. false

Qu. Would you mind telling me which call this test gave O=[N+]([O-])c1ccc(Cl)cc1Cl ?
Ans. false

Qu. What did this assay record as the result for CC(C)=CCC/C(C)=C/C=N/O ?
Ans. false

Qu. For this compound, state the assay outcome: O=C(O)c1ccc2cc(O)ccc2c1
Ans. false

---

- SYSTEM TESTED: Luciferin 4-monooxygenase (Photinus pyralis)
- MEASUREMENT PROTOCOL: qHTS assay to identify small molecule inhibitors of firefly luciferase (AID 1224835); also: nearly all actives have a fitted effect of over 25% in size; also: potency is read from the fitted curve at half-maximal effect
- CONDITION PARAMETERS: purified P. pyralis luciferase, luminescence inhibition; series mostly up to 115 µM
Records with an inconclusive call do not appear. Active and inactive are the calls of the source. The call rests on the fitted dose curve; in most records, active means well fitted inhibition curve with a large enough effect in the repeat runs; inconclusive means weak or mixed curves; inactive means flat fitted curve, though single readings scatter.
OBSERVED PROPERTY: Potency

> print(dat)
                         compound.structure  value.observed
1                    O=c1c2ccccc2oc2ccccc12  20 µM (active)
2                          O=C(O)CNc1ccccc1        inactive
3  CC1(C)[C@@H]2CC[C@]3(C2)[C@@H]1C(=O)CCC3(C)C        inactive
4  C/C(=C(\CCO)SS/C(CCO)=C(\C)N(C=O)Cc1cnc(C)nc1N)N(C=O)Cc1cnc(C)nc1N        inactive

---

- MEASUREMENT PROTOCOL: qHTS assay for identifying genotoxic compounds that show differential cytotoxicity against isogenic chicken DT40 cell lines with known DNA damage response pathways - Rev3 mutant cell line (AID 743014); also: % is scaled to controls: 0 for no effect and ±100 for the full control effect; nearly all actives have a fitted effect of over 55% in size
- CONDITION PARAMETERS: chicken DT40 Rev3-/- viability, CellTiter-Glo, 40 h; series mostly up to 68.4 µM
Records with an inconclusive call do not appear. The source made the active and inactive calls. Calls follow the shape of the dose curve; as a rule, active = well fitted cell-killing curve with a large enough effect in the repeat runs; inconclusive = weak or mixed curves, or effect the other way; inactive = no such curve, though single readings can be large or run the other way.
The reply should be one of these categories: active, inactive

> print(dat)
                               compound  assigned.label
1  CCCC1CCCC(=O)O1 (stereo unspecified)        inactive

# next compound below
Qu. Field: outcome | Entry: Cc1ccc(S(=O)(=O)NC(=O)NC2CCCC2)cc1
Ans. inactive

Entry source: PubChem BioAssay (Tox21)
